# target.system: CREB-binding protein (Homo sapiens, UniProt Q92793)
# Sequence (Q92793 whole entry): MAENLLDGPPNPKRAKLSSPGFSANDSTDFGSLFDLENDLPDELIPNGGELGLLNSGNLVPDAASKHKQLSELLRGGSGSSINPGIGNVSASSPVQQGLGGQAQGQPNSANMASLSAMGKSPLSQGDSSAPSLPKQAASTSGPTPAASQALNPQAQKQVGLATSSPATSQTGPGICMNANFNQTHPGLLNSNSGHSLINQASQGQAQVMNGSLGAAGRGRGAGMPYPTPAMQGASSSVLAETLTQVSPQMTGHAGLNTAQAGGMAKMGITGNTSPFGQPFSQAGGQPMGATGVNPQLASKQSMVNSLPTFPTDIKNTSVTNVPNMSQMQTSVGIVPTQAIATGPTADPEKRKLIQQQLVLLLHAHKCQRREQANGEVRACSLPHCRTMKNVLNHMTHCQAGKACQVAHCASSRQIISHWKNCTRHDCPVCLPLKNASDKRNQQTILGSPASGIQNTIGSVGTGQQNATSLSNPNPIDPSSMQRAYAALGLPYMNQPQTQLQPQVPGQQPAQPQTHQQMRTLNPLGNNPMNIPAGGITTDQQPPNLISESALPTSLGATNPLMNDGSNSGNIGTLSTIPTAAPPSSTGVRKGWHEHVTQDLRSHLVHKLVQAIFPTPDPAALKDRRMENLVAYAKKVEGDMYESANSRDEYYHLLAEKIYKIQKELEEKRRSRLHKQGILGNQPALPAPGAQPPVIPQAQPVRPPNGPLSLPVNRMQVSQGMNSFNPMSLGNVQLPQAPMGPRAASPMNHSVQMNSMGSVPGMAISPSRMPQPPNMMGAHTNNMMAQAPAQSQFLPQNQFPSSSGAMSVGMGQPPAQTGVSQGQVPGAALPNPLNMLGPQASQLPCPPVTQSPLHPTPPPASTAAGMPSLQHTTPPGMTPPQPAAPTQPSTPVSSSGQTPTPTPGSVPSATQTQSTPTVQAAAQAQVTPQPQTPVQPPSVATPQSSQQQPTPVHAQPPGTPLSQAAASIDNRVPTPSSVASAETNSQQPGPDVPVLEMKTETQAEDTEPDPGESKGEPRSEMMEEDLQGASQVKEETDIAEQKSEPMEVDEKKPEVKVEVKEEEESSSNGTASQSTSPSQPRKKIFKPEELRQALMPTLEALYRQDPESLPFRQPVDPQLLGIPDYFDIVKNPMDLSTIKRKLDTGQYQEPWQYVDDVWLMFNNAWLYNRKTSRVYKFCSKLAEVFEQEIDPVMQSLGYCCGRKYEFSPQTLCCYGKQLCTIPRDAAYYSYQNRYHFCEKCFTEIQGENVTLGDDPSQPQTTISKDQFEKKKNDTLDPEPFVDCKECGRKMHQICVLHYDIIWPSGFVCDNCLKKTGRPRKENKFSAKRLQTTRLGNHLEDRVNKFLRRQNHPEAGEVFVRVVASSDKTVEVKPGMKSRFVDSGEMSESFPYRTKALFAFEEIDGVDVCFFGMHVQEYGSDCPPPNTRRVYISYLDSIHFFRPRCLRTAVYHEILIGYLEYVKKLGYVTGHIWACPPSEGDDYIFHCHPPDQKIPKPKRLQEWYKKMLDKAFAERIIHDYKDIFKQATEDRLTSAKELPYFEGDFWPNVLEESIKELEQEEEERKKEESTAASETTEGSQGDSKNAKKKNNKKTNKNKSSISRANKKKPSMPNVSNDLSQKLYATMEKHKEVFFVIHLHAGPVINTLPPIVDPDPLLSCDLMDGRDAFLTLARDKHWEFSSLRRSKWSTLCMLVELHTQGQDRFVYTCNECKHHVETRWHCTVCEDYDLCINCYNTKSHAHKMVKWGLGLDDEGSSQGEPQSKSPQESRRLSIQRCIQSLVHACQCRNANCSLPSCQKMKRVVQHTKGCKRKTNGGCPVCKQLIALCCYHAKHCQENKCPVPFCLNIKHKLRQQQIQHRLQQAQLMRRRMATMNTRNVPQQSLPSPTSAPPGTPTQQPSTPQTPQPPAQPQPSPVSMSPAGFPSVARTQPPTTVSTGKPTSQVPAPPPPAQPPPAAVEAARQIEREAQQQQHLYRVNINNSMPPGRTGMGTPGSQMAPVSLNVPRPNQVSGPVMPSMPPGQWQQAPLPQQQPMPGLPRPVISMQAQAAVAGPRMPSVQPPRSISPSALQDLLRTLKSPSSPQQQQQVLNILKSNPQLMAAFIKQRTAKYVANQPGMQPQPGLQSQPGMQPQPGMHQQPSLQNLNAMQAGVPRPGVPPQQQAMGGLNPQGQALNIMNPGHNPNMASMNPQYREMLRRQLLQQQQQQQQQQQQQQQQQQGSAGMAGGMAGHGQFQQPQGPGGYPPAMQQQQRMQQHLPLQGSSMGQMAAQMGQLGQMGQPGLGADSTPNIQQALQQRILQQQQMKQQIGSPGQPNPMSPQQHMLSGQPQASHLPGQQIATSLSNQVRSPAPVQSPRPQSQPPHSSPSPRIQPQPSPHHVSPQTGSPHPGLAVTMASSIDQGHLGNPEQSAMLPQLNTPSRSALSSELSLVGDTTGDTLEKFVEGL
# assay.notes: Inhibition of human CREBBP expressed in bacterial expression system
quantity.kind: Ki (µM)

                           substance_smiles  quantity_kind  numeric_result
0  COc1nnc2ccc(N3CCC(c4ccc(OCCN5CCN(C)C(=O)[C@H]5C)cc4)CC3)nn12             Ki            6.31

====

# target.system: Bromodomain-containing protein 4 (Homo sapiens, UniProt O60885)
# assay.notes: Inhibition of human BRD4 bromodomain 1 expressed in bacterial expression system
quantity.kind: Ki (nM)

>>> df
                                   molecule                             target_system  quantity_unit  numeric_result
0  COc1nnc2ccc(N3CCC(c4ccc(OCCN5CCN(C)C(=O)[C@H]5C)cc4)CC3)nn12 [AZD-5153]  Bromodomain-containing protein 4 (Homo sapiens, UniProt O60885)             nM            50.1
